system name: Mu-type opioid receptor (Homo sapiens)
Sequence (P35372 whole entry): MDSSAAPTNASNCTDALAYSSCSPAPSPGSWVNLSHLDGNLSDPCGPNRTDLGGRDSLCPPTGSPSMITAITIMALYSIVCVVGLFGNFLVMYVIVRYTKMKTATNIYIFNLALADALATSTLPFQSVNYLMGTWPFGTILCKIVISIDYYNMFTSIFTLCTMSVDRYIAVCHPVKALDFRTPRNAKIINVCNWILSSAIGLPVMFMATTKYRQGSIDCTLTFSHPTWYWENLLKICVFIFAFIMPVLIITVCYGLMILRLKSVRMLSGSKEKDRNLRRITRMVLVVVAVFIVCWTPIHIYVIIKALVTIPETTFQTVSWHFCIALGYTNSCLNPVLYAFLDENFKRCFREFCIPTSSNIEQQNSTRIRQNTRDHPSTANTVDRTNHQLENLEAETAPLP
Type: functional, cell-based, HEK-293T
test context: read-out: IC50
Description: Antagonist activity at recombinant human MOR expressed in HEK293T cells assessed as reduction in DAMGO-induced inhibition of forskolin-stimulated cAMP level preincubated for 15 to 20 mins followed by DAMGO and forskolin addition by GloSensor assay
pIC50: −log10 of the molar value.
Listed here: items and their measured pIC50.

{"columns": ["compound", "pIC50"],
 "data": [
  ["CCCC(NC(=O)/C(=C/c1ccccc1)CN1CC[C@@](C)(c2cccc(O)c2)[C@@H](C)C1)C(=O)O (stereo not given in full)", 5.63],
  ["CCC(C)C(NC(=O)/C(=C/c1ccccc1)CN1CC[C@@](C)(c2cccc(O)c2)[C@@H](C)C1)C(=O)O (stereo not given in full)", 5.80],
  ["CC(C)C[C@H](NC(=O)/C(=C/c1ccccc1)CN1CC[C@@](C)(c2cccc(O)c2)[C@@H](C)C1)C(=O)O", 6.11],
  ["CC(C)[C@H](NC(=O)/C(=C/c1ccccc1)CN1CC[C@@](C)(c2cccc(O)c2)[C@@H](C)C1)C(=O)O", 6.19],
  ["CC1(c2cccc(O)c2)CCN(C/C(=C\\c2ccccc2)C(=O)O)CC1", 7.74]
]}
